experimentalTarget: CYP2C9 (Homo sapiens)
Sequence (P11712 whole entry, canonical isoform): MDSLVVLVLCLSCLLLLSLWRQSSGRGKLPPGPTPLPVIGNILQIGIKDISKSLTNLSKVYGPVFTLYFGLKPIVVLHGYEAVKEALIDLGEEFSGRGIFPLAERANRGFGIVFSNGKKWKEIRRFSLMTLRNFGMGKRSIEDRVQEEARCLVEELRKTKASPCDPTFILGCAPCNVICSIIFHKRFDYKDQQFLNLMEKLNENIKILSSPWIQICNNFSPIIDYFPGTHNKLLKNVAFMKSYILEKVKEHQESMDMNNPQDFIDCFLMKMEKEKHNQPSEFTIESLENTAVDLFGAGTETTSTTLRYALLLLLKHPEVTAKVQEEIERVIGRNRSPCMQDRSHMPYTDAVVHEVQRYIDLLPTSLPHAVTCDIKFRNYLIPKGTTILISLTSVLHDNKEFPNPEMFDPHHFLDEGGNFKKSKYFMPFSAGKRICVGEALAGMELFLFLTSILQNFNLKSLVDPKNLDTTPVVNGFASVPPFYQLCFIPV
method: CYP isoform inhibition in human liver microsomes (Cyprotex)
testSettings: human, human liver microsomes
Non-standard residues stand in square brackets, D forms with d. Residues, ends and D or L forms follow the SMILES beside them.
readoutKind: inhibition at 25 µM (%)
The reply should contain only the number, in %.

Q. Form: Entry = CC(C)C[C@@H](NC(=O)[C@H](NC(=O)[C@H]1CCCN1)[C@H](C)O)C(=O)N[C@H](Cc1c[nH]cn1)C(=O)N[C@@H](C(=O)N[C@H](Cc1c[nH]cn1)C(=O)N[C@H](CC(N)=O)C(=O)N[C@H](CCCNC(=N)N)C(=O)N[C@H](CCCNC(=N)N)C(=O)N[C@H](CCCNC(=N)N)C(=O)N[C@H](CCCNC(=N)N)C(=O)N[C@H](CCCNC(=N)N)C(N)=O)[C@H](C)O [RD2, ptlhthnrrrrr] (H-[dP][dT][dL][dH][dT][dH][dN][dR][dR][dR][dR][dR]-NH2) | System = CYP2C9 (Homo sapiens) | inhibition at 25 µM = ____
A. -26.8

All figures here come from paper PMC6450887.
